- TEST TARGET: HiBit-KRAS^G12C (Homo sapiens, UniProt P01116, G12C)
- Sequence (P01116 1-186 isoform P01116-2 G12C limits assumed): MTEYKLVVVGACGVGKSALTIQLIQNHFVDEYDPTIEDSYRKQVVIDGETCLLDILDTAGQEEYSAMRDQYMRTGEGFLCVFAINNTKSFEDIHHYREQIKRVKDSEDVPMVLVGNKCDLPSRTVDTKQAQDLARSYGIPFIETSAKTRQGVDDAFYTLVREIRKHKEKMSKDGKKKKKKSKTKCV
- RUN DESCRIPTION: HiBit degradation assay in SW1573 HiBit-KRas^G12C cells
- Assay type: cell-based
- Design: expressed in transfected cells; host or cells: SW1573 (clone E6), modified pcDNA3.1 vector, TK promoter
- CONDITION SUMMARY: SW1573, read-out: KRas^G12C-HiBiT (SW1573; 0.5% DMSO) Dmax**, SW1573 HiBit-KRas^G12C, 0.5% DMSO, 24 hours
Readings of Dmax for the listed molecules

Observe how each entry below is paired with its result.
input_smiles=C=CC(=O)N1CCN(c2nc(O[C@H]3CCC[C@@H]3N3CCC(COCC(=O)N[C@H](C(=O)N4C[C@H](O)C[C@H]4C(=O)N[C@@H](C)c4ccc(-c5scnc5C)cc4)C(C)(C)C)CC3)nc3c(F)c(-c4cc(O)cc5ccccc45)c(Cl)cc23)CC1 test_target="HiBit-KRAS^G12C (Homo sapiens, UniProt P01116, G12C)" value_kind=Dmax reading="35 to 70%"
input_smiles=C=CC(=O)N1CCN(c2nc(OCCN3CCC4(CC3)CN(CC(=O)N[C@H](C(=O)N3C[C@H](O)C[C@H]3C(=O)N[C@@H](C)c3ccc(-c5scnc5C)cc3)C(C)(C)C)C4)nc3c(F)c(-c4cc(O)cc5ccccc45)c(Cl)cc23)C[C@@H]1CC#N test_target="HiBit-KRAS^G12C (Homo sapiens, UniProt P01116, G12C)" value_kind=Dmax reading="> 70%"

Switching to the query record.
Qu. Param readout = Dmax; param system = HiBit-KRAS^G12C (Homo sapiens, UniProt P01116, G12C); param query = C=CC(=O)N1CCN(c2nc(O[C@H](C)CN3CCN(C4CN(CC(=O)N[C@H](C(=O)N5C[C@H](O)C[C@H]5C(=O)N[C@@H](C)c5ccc(-c6scnc6C)cc5)C(C)(C)C)C4)CC3)nc3c(F)c(-c4cc(O)cc5ccccc45)c(Cl)cc23)CC1 ; response: value
Ans. 35 to 70%
